# Tested on: HCCLM3 cells
# Experimental Details: GI50 in HCCLM3 cells, cell viability by MTS assay
# Type: cell-based
# Protocol Conditions: Homo sapiens, 72 hours incubation, triplicates, read-out: HCCLM3 activity range (GI50)
Readout Kind: GI50

Name the recorded GI50 of the compound listed here: COc1cc2nccc(Oc3ccc(NC(=O)C45CC(C(=O)N6CC7CC7C6)(C4)C5)cc3)c2cc1OC (stereo not shown) [Compound 35] > 20 µM

Name the recorded GI50 of the compound listed here: COc1cc2nccc(Oc3ccc(NC(=O)C45CC(C(=O)NC6CC6)(C4)C5)cc3)c2cc1OC [Compound 36] > 20 µM

Name the recorded GI50 of the compound listed here: COc1cc2nccc(Oc3ccc(NC(=O)C4(C(=O)NC56CC(OC(=O)c7ccccc7)(C5)C6)CC4)cc3)c2cc1OC [Compound 5] > 20 µM

Name the recorded GI50 of the compound listed here: COCC12CC(NC(=O)C3(C(=O)Nc4ccc(Oc5ccnc6cc(OC)c(OC)cc56)cc4)CC3)(C1)C2 [Compound 30] 10 to 20 µM

Name the recorded GI50 of the compound listed here: COc1cc2nccc(Oc3ccc(NC(=O)C4(C(=O)NC56CC(c7ccccc7)(C5)C6)CC4)cc3)c2cc1OC [Compound 2] > 20 µM

Name the recorded GI50 of the compound listed here: COc1cc2nccc(Oc3ccc(NC(=O)C4(C(=O)NC56CC(C(F)(F)F)(C5)C6)CC4)cc3)c2cc1OC [Compound 11] ≤ 10 µM

Name the recorded GI50 of the compound listed here: COc1cc2nccc(Oc3ccc(NC(=O)C4(C(=O)N5C[C@@H]6[C@H](C5)[C@H]6C(N)=O)CC4)cc3)c2cc1OC [Compound 22] > 20 µM

---

# Tested on: HCCLM3 cells
# Experimental Details: GI50 in HCCLM3 cells, cell viability by MTS assay
# Format: cell-based
# Protocol Conditions: Homo sapiens, 72 hours incubation, triplicates, read-out: HCCLM3 activity range (GI50)
# Method: To investigate the effects of compounds on hepatocellular carcinoma (HCC) cell viability, HCCLM3 cells (HCC cells with high metastatic potential) were incubated with increasing concentrations of test compounds for 72 hours. Cell viability was evaluated at the end of incubation period by MTS assay. […] All samples were evaluated in triplicates. As set forth in Table 1 below, GI50 values are defined as follows: GI50≤10 μM (+++); GI50>10 μM and ≤20 μM (++); GI50>20 μM (+).
For each of the molecules below, state its GI50.

Name the recorded GI50 of the molecule listed here: COc1cc2nccc(Oc3ccc(NC(=O)C4(C(=O)NC56CC(NC(C)=O)(C5)C6)CC4)cc3)c2cc1OC > 20 µM

Name the recorded GI50 of the molecule listed here: COc1cc2nccc(Oc3ccc(NC(=O)C4(C(=O)NC5C[C@H]6CC[C@@H](C5)N6C)CC4)cc3)c2cc1OC (some centres unmarked) > 20 µM

Name the recorded GI50 of the molecule listed here: COc1cc2nccc(Oc3ccc(NC(=O)C4(C(=O)N5C[C@@H]6COC[C@@H](C6)C5)CC4)cc3)c2cc1OC > 20 µM

Name the recorded GI50 of the molecule listed here: COc1cc2nccc(Oc3ccc(NC(=O)C4(C(=O)N5CC6CC6C5)CC4)cc3)c2cc1OC (centres unmarked) > 20 µM

Name the recorded GI50 of the molecule listed here: COC(=O)C12CC(NC(=O)C3(C(=O)Nc4ccc(Oc5ccnc6cc(OC)c(OC)cc56)cc4)CC3)(C1)C2 ≤ 10 µM

Name the recorded GI50 of the molecule listed here: COc1cc2nccc(Oc3ccc(NC(=O)C4(C(=O)NC56CC(CO)(C5)C6)CC4)cc3)c2cc1OC ≤ 10 µM

Name the recorded GI50 of the molecule listed here: COc1cc2nccc(Oc3ccc(NC(=O)C4(C(=O)NC56CC(C)(C5)C6)CC4)cc3)c2cc1OC ≤ 10 µM

Name the recorded GI50 of the molecule listed here: COc1cc2nccc(Oc3ccc(NC(=O)C4(C(=O)NC56CC5CN(C(C)=O)C6)CC4)cc3)c2cc1OC (centres unmarked) > 20 µM

---

# Test system: HCCLM3 cells
# Experimental Details: GI50 in HCCLM3 cells, cell viability by MTS assay
# Type: cell-based
# Protocol Conditions: Homo sapiens, 72 hours incubation, triplicates, read-out: HCCLM3 activity range (GI50)
Readout Kind: GI50

Name the recorded GI50 of the compound listed here: COc1cc2nccc(Oc3ccc(NC(=O)C4(C(=O)NC56CC(C5)C6)CC4)cc3)c2cc1OC ≤ 10 µM

Name the recorded GI50 of the compound listed here: COc1cc2nccc(Oc3ccc(NC(=O)C4(C(=O)N5[C@@H]6CC[C@H]5C[C@@H](OC)C6)CC4)cc3)c2cc1OC > 20 µM

Name the recorded GI50 of the compound listed here: COc1cc2nccc(Oc3ccc(NC(=O)C45CC(C(=O)NC67CC(F)(C6)C7)(C4)C5)cc3)c2cc1OC > 20 µM

Name the recorded GI50 of the compound listed here: COc1cc2nccc(Oc3ccc(NC(=O)C4(C(=O)NC56CC7CC(CC(C7)C5)C6)CC4)cc3)c2cc1OC 10 to 20 µM

Name the recorded GI50 of the compound listed here: COc1cc2nccc(Oc3ccc(NC(=O)C4(C(=O)NC56CC(F)(C5)C6)CC4)cc3)c2cc1OC ≤ 10 µM

Name the recorded GI50 of the compound listed here: COc1cc2nccc(Oc3ccc(NC(=O)C4(C(=O)NC56CCC(CC5)CC6)CC4)cc3)c2cc1OC 10 to 20 µM

Name the recorded GI50 of the compound listed here: COc1cc2nccc(Oc3ccc(NC(=O)C4(C(=O)N5[C@@H]6CC[C@H]5C[C@H](C#N)C6)CC4)cc3)c2cc1OC > 20 µM
